Give measured Neutralization B-1 IC50 for each item. Keep answers brief.
# experimentalSystem: protein F of hRSV strain B-1 (on RSV B-1-infected Hep2 cells and on virus) (human respiratory syncytial virus, …, UniProt P13843 26-574)
# assayNotes: cell-based or functional assay
Answer in µM, number only, no unit symbol.

Data request, read-out Neutralization B-1 IC50, for Nanobody 19E2 (VHH, also called PMP19E2; PRSV19E2) VHH: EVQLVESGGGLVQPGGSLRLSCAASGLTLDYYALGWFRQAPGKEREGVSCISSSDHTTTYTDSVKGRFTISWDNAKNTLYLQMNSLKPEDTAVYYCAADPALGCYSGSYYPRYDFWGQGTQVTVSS
4.55

Also need Nanobody 1B2 (VHH, c-myc/His6-tagged; also called PMP1B2; PRSV1B2) VHH: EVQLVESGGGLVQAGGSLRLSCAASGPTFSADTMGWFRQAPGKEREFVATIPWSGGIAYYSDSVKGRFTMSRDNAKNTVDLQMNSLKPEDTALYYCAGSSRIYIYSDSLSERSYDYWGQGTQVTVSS , thanks.
7.38

Query Nanobody 13D1 (VHH, also called PMP13D1; PRSV13D1) VHH: EVQLVESGGGLVQPGGSLRLSCATSGFTEDYYVIGWFRQAPGKEREGVSCMSSSGDSTTYADSVKGRFTISRDNAKNMVYLQMTSLKPEDTAVYYCAADFALGCYSGSYYPRYDYWGQGTQVTVSS next
5.85

Data origin, for the record: patent US20120301469A1
